Here the recorded pIC50 is given for each entry.
Target: UniProt:P29597
Sequence (P29597 whole entry): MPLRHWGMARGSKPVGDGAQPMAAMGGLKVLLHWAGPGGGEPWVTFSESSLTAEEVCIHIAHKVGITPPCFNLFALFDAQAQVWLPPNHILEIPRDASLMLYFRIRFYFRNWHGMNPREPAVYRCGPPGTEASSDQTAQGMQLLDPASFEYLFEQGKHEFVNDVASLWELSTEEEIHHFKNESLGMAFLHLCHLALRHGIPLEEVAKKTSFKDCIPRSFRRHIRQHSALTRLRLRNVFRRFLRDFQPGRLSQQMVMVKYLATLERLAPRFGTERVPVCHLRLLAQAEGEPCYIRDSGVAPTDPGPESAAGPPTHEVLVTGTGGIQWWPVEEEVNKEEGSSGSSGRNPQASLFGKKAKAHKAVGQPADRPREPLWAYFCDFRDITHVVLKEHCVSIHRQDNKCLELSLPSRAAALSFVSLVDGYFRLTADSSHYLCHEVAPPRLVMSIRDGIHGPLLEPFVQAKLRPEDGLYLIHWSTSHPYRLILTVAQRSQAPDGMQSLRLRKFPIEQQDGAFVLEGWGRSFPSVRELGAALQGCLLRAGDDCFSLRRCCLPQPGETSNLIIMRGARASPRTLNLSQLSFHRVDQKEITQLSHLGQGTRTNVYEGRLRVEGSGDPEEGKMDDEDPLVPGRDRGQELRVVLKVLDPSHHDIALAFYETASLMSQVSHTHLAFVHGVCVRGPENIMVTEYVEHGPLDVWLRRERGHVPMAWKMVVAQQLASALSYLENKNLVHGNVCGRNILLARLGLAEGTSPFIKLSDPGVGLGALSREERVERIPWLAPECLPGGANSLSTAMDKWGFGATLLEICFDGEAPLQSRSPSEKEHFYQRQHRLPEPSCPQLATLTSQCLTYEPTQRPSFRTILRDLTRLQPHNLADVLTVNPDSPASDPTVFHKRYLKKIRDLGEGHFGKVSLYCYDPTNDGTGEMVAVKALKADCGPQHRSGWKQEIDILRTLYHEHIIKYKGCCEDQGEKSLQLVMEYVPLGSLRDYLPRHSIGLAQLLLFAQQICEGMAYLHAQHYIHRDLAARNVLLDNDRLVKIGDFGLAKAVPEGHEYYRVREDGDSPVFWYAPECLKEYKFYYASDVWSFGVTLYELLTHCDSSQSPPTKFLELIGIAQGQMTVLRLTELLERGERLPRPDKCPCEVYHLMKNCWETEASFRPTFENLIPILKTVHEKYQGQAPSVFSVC
pIC50: −log10 of the molar value.

Below, 5 compounds whose answers are already recorded.
Nc1cc2ccc1-c1ccnc(n1)Nc1ccc(OC3CC3)c(c1)COc1ccc(cc1)NC2=O | < 5.00
O=C1NCCCCOCc2cc(cc(Cl)c2N2CCOCC2)Nc2nccc(n2)-c2ccc1cc2 | 6.00 to 7.00
Nc1cc2ccc1-c1ccnc(n1)Nc1ccc(OC3CCCOC3)c(c1)COc1ccc(cc1)NC2=O (centres unmarked) | 5.00 to 6.00
CC(C)COc1ccc2cc1COCCCCNC(=O)c1ccc(c([N+](=O)[O-])c1)-c1ccnc(n1)N2 | < 5.00
Cc1cc2ccc1-c1ccnc(n1)Nc1ccc(N3CCCCC3)c(c1)COCCCCNC2=O | 6.00 to 7.00

Ask: Would you please give the reported pIC50 of Cc1cc2ccc1-c1nc(ncc1C)Nc1cccc(c1)COCCCCNC2=O with UniProt:P29597?
Result: < 5.00

Ask: Using UniProt:P29597 as the test system, report measured pIC50 of Cc1cc2ccc1-c1nc(ncc1C)Nc1ccc(F)c(c1)COCCCCNC2=O .
Result: < 5.00

Ask: Lab note: record pIC50 of Nc1cc2ccc1-c1ccnc(n1)Nc1ccc(Oc3ccc(F)cc3)c(c1)COCCCCNC2=O tested on UniProt:P29597.
Result: < 5.00
